Source: ChEMBL document CHEMBL5724914

# Protocol Description: The drug is tested on Z-027 corresponding to metagenome with ENA study accession number: PRJEB37062 and ENA sample accession number: ERS12561826 for biotransformation under anaerobic condition. The drug concentrations were measured over 9 timepoints collected between 0 and 24 hours of incubation by liquid-chromatography-coupled mass spectrometry (LC–MS); further: call rule not given here
# Measurement Setup: 2 µM
Measured Property: Bacterial Biotransformation

Reference set, count: 7
* CC(C)(Oc1ccc(CCNC(=O)c2ccc(Cl)cc2)cc1)C(=O)O [BEZAFIBRATE] | Compound NOT metabolized
* CCC(=O)NCC[C@@H]1CCc2ccc3c(c21)CCO3 [RAMELTEON] | Compound NOT metabolized
* CC[C@@H](CO)NC(=O)[C@@H]1C=C2c3cccc4c3c(cn4C)C[C@H]2N(C)C1.O=C(O)/C=C\C(=O)O [METHYSERGIDE MALEATE] | Compound NOT metabolized
* COc1ccc2[nH]c([S+]([O-])Cc3ncc(C)c(OC)c3C)nc2n1 (stereo not drawn) [TENATOPRAZOLE] | Compound metabolized
* CN1CCc2c(c3ccccc3n2Cc2ccccc2)C1.CN1CCc2c(c3ccccc3n2Cc2ccccc2)C1.O=S(=O)(O)c1cccc2c(S(=O)(=O)O)cccc12 | Compound NOT metabolized
* CCCCCOC(=O)Nc1nc(=O)n([C@@H]2O[C@H](C)[C@@H](O)[C@H]2O)cc1F [CAPECITABINE] | Compound metabolized
* O=C(NCc1ccccc1)OCCO [BURAMATE] | Compound NOT metabolized

Let us move to another entry and its Bacterial Biotransformation.
COC(=O)[C@H]1[C@H]2C[C@@H]3c4[nH]c5cc(OC)ccc5c4CCN3C[C@H]2C[C@@H](OC(=O)c2cc(OC)c(OC)c(OC)c2)[C@@H]1OC [RESERPINE] yielded Bacterial Biotransformation of Compound NOT metabolized

----------
# Protocol Description: The drug is tested on Z-022 corresponding to mouse gut metagenome with ENA study accession number: PRJEB37062 and ENA sample accession number: ERS12561821 for biotransformation under anaerobic condition. The drug concentrations were measured over 9 timepoints collected between 0 and 24 hours of incubation by liquid-chromatography-coupled mass spectrometry (LC–MS)
# Measurement Setup: 2 µM
Where a SMILES comes first, the peptide text is derived from it. [ ]: non-standard residue; d: D form. pGlu = O=C1CC[C@@H](C(=O)O)N1; Thz = O=C(O)[C@@H]1CSCN1
Measured Property: Bacterial Biotransformation

The following molecules have reported results that may help.
- O=C1CC[C@@H](C(=O)N2CSC[C@H]2C(=O)O)N1 [PIDOTIMOD] ([pGlu]-[Thz]-OH): Compound metabolized
- CC(C(=O)O)c1ccc2c(c1)Cc1cccnc1O2 (configuration not stated) [PRANOPROFEN]: Compound metabolized
- C[C@@H]1C[C@H]2[C@@H]3CCC4=CC(=O)C=C[C@]4(C)[C@@]3(F)[C@@H](O)C[C@]2(C)[C@@]1(O)C(=O)CO [DEXAMETHASONE]: Compound metabolized
- CCCCc1nc(Cl)c(CO)n1Cc1ccc(-c2ccccc2-c2nn[nH]n2)cc1 [LOSARTAN]: Compound NOT metabolized
- CNC(=C[N+](=O)[O-])NCCSCc1csc(CN(C)C)n1 [NIZATIDINE]: Compound metabolized

Hello, I would appreciate it if you could give Bacterial Biotransformation for each entry below.
1. COc1c2occc2cc2ccc(=O)oc12 [METHOXSALEN]
2. O=C1[C@H](CC[C@H](O)c2ccc(F)cc2)[C@@H](c2ccc(O)cc2)N1c1ccc(F)cc1 [EZETIMIBE]
3. COC(=O)[C@H]1[C@H]2C[C@@H]3c4[nH]c5cc(OC)ccc5c4CCN3C[C@H]2C[C@@H](OC(=O)c2cc(OC)c(OC)c(OC)c2)[C@@H]1OC [RESERPINE]
4. CS(=O)(=O)O.OC(CCN1CCCCC1)(c1ccccc1)c1ccccc1 [PRIDINOL METHANESULFONATE]
5. O=c1[nH]c2ccccc2n1C1CCN(CCCC(c2ccc(F)cc2)c2ccc(F)cc2)CC1 [PIMOZIDE]
6. CCN(CC)C(C)CN1c2ccccc2Sc2ccccc21 (configuration not stated) [ETHOPROPAZINE]

["Compound NOT metabolized", "Compound NOT metabolized", "Compound metabolized", "Compound NOT metabolized", "Compound NOT metabolized", "Compound NOT metabolized"]

Record Bacterial Biotransformation for all entries; do not skip any.
1. CC[C@H](C)C(=O)O[C@H]1C[C@@H](C)C=C2C=C[C@H](C)[C@H](CC[C@@H]3C[C@@H](O)CC(=O)O3)[C@H]21 [LOVASTATIN]
2. CCN(CC)CCOCCOC(=O)C1(c2ccccc2)CCCC1.O=C(O)CC(O)(CC(=O)O)C(=O)O [CARBETAPENTANE CITRATE]
3. CC(C)NCC(O)c1ccc(NS(C)(=O)=O)cc1 (configuration not stated) [SOTALOL]
4. CCC(COC(=O)c1cc(OC)c(OC)c(OC)c1)(c1ccccc1)N(C)C.O=C(O)/C=C\C(=O)O (configuration not stated)

1: Compound metabolized; 2: Compound metabolized; 3: Compound NOT metabolized; 4: Compound metabolized

Take each entry in turn and give its Bacterial Biotransformation.
1. Nc1nc2ccc(OC(F)(F)F)cc2s1 [RILUZOLE]
2. CNS(=O)(=O)Cc1ccc2[nH]cc(CCN(C)C)c2c1.O=C(O)CCC(=O)O [SUMATRIPTAN SUCCINATE]

1: Compound metabolized; 2: Compound NOT metabolized
